Target: T1, human CLDN6 fused to GFP, expressed on engineered HEK293T cells (HEK293T-CLDN6-mGFP) (human, UniProt P56747 1-220)
T1 construct: It calls residues 1-21 a signal peptide; also called Claudin-6; HEK293T-CLDN6-mGFP Artificial CLDN6+; not shown: mGFP tag
T1 sequence: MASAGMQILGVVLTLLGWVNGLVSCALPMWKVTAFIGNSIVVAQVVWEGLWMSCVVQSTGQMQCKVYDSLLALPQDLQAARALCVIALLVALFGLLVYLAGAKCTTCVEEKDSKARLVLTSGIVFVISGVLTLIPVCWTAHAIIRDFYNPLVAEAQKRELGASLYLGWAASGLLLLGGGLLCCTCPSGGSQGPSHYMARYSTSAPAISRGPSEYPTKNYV
Assay: FACS, 1.5 µg Ab, 293T clone with human CLDN6
attribute measured: FACS fluorescence
Field format: numeric only.

A selection of reference data follows.
binder	FACS fluorescence
AB4-11 (antibody, V domains shown, Humanized; also called Humanized AB 4-11) VH: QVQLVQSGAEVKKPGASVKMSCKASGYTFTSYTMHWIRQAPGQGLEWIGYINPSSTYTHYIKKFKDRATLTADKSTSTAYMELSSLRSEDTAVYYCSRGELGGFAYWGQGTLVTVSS VL: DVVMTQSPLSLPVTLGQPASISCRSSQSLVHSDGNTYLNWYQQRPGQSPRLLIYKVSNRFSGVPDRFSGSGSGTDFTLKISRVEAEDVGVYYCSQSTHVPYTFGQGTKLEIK	61200
AB9-4 (antibody, V domains shown, also called Humanized AB 9-4) VH: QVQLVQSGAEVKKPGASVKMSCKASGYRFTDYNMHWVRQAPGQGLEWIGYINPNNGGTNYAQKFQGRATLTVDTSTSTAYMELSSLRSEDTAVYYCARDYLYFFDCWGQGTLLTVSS VL: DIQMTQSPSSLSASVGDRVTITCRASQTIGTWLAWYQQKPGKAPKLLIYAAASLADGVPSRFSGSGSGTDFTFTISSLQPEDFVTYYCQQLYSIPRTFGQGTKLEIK	34300

Lab note: next binder to report on.
Entry under review: AB1-8 (antibody, V domains shown, Humanized; also called Humanized AB 1-8) VH: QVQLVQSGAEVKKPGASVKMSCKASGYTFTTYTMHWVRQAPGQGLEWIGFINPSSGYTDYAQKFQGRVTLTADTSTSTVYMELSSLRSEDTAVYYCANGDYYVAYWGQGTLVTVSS VL: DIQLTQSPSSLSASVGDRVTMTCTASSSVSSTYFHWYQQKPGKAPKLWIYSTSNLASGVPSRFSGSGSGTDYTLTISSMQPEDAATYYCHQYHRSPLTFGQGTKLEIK . Reported FACS fluorescence?
210000
